Compiled record: Ki values for Substance-K receptor (Homo sapiens, UniProt P21452) across several sources.
Measurement kind: Ki (nM)

Some molecules with known Ki results, for comparison:
Exercise: Given the entry `O=C1c2nc(N3CCOCC3)nc(Nc3ccc(Cl)cc3)c2CN1CCN1CCOCC1` , report its measured Ki.
Key: 187

Exercise: Given the entry CNC(=O)CC1CCCN(C2CCN(CC[C@@H](/C(CN(C)C(=O)c3cc(Cl)cc(Cl)c3)=N/OC)c3ccc(Cl)c(Cl)c3)CC2)C1=O (stereo partly specified) , report its measured Ki.
Key: 0.4

Exercise: Given the entry CN(Cc1ccccc1)C(=O)[C@@H](Cc1ccc2ccccc2c1)NC(=O)C1C[C@@H](O)CN1C(=O)c1cn(C)c2ccccc12 (stereo partly specified) , report its measured Ki.
Key: 1520

1: CSCC[C@H](NC(=O)[C@H](CC(C)C)NC(=O)CNC(=O)[C@@H](NC(=O)[C@H](Cc1ccccc1)NC(=O)[C@H](Cc1ccccc1)NC(=O)[C@H](CC(=O)O)NC(=O)[C@H](Cc1c[nH]cn1)NC(=O)[C@H](CCSC)NC(=O)[C@@H](N)CC(=O)O)C(C)C)C(N)=O
2: CC(=O)NC1(c2ccccc2)CCN(CCC(CN(C)C(=O)c2ccccc2)c2ccc(Cl)c(Cl)c2)CC1 (stereo unspecified)
Exercise: Between 1 and 2 , whose measured Ki reads higher? Selection: enter the item's label.
Key: 1
